Molecular target: T1, Sec8-His (section 8 (Sec8), an antigenic region of CSP-1, tagged with a polyhistidine (His) tag)
T1 construct: also called Sec8-His antigen
T1 chain: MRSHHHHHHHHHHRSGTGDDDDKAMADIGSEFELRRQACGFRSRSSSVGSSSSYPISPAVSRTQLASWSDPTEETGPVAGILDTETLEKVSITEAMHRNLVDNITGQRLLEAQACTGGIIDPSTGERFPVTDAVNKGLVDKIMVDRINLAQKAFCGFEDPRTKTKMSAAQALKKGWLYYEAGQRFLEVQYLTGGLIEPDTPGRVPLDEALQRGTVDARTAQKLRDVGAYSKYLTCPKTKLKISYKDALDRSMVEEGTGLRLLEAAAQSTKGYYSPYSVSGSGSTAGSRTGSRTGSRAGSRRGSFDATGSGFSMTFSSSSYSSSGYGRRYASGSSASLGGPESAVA
Assay: BLI (Octet), single shot: antibody on anti-human IgG tips, 24 nM Sec8-His
reported-property: binding result

| binder | reported-property | result |
| --- | --- | --- |
| humanized anti-CSP-1 antibody, Antibody Number 19 (Table 1) (antibody, human IgG1, V domains shown, also called Antibody 19) VH: EVQLVESGGDLVKPGGSLKLSCAASGFTFSRYGMSWVRQTPDKRLEWVATISIGGTYTYYPDSMKGRFTISRDNAKNTLYLQMSSLKSEDTAMYYCARRGYGNYSYYGLDYWGQGTSVTVSS VL: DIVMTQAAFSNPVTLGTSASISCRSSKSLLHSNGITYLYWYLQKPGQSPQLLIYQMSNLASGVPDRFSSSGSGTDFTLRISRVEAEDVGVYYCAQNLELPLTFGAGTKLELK | binding result | binds |
| humanized anti-CSP-1 antibody, Antibody Number 28 (Table 1) (antibody, human IgG1, V domains shown, also called Antibody 28) VH: EVQLVESGGDLVKPGGSLKLSCAASGFTFSRYGMSWVRQTPDKRLEWVATISIGGTYTYYPDSMKGRFTISRDNAKNTLYLQMSSLKSEDTAMYYCARRGYGNYSYYGMDYWGQGTSVTVSS VL: DIVMTQAAFSNPVTLGTSASISCRSSKSLLHSNGITYLYWYLQKPGQSPQLLIYQLSNLASGVPDRFSSSGSGTDFTLRISRVEAEDVGVYYCAQNLELPLTFGAGTKLELK | binding result | binds |

Cited source for all entries: patent US20250011418A1
